Just for reference, patent US20250270339A1 is where these values come from.

- Measured on: T1, Full length Mouse TfR on CHO cells (mouse, UniProt Q62351 1-763)
- T1 construct: also called CHO + muTfR
- Method: FACS, CHO+muTfR
Property label: binding result

# Binder, Reported value
data = [
    ("TfR6 (mouse hybridoma antibody) (antibody, V domains shown, mouse IgG in hybridoma supernatant) VH: DVQLVESGGGLVQPGGSRKLSCAASGFTFSSFGMHWVRQAPEKGLEWVAYISSGSSAIYYADTVKGRFTVSRDNPKNTLFLQMTSLRSEDTAIYYCATSYVYDPPWFAYWGQGTLVTVSA VL: DIVMTQSHKFMSTSVGDRVSITCKASQDVSTAVAWYQQKPGQSPKLLIYWASTRPTGVPDRFTGSGSGTDYTLTISSVQAEDLALYSCQQHFSTPWTFGGGTKLEIK", "no binding"),
    ("TfR7 (mouse hybridoma antibody) (antibody, V domains shown, mouse IgG in hybridoma supernatant) VH: DVQLQESGPGLVKPSQSLSLTCTVTGYSITSDYAWNWLRQFPGNKLEWMGYISYSGYSRHNPSLKSRISITRDTSKNQFFLQLNSVTSEDTATYYCARGDWDFDYWGQGTTLTVSS VL: DIVMTQSQKFMSTSVGDRVSVTCKASQNVLTNVAWYQQKPGHSPKALIYSSSSRNSGVPDRFTGSGSGTDFTLTISNVQSEDLAEYFCQQYNTYPYTFGGGTKLEIK", "no binding"),
]
